Where a name gives a salt, the structure may show the parent alone.
Hi there, I'd appreciate the recorded melting point for every entry that follows.

Answered examples (2):
{"Compound": "COCN1C(C)=NC(C)=C(C(=O)NCCCN2CCC(C(=O)OC)(c3ccccc3)CC2)C1c1ccc(F)c(F)c1 (stereo not drawn)", "Val": "53 to 57 °C"}
{"Compound": "COC(=O)C1=C(C)N=C(C)N(CCCCCNCCCc2ccccc2)C1c1ccc(F)c(F)c1 (stereo not drawn) (as salt: HCl) [Example 61]", "Val": "95 to 97 °C"}

For each entry beneath this line, provide reported melting point.
1. COC(=O)C1=C(C)N=C(C)N(CCCC(O)CN2CCC(c3ccccn3)CC2)C1c1ccc(F)c(F)c1 (single isomer, unassigned; (+)) (as salt: HCl) [Example 62]
2. COC(=O)C1=C(C)NC(=O)N(C(=O)NCCCN2CCC(c3ccccn3)CC2)C1c1ccc(F)c(F)c1 (stereo not drawn) (as salt: hydrochloride) [Example 21, Dihydrochloride]
3. CNC(=O)C1=C(C)N=C(C)N(CCCCCN2CCC(C(=O)OC)(c3ccccc3)CC2)C1c1ccc(F)cc1F (stereo not drawn) (as salt: HCl)
4. COC(=O)C1=C(C)N=C(C)N(CCCCCN2CCC(C(=O)OC)(c3ccccc3)CC2)C1c1ccc(F)c(F)c1 (stereo not drawn) (as salt: HCl) [Example 23]

1: 163 to 165 °C; 2: 170 to 174 °C; 3: 152 to 155 °C; 4: 170 to 176 °C
